Tested on: Clostridium sporogenes DSM 1664
Assay: fold change of Tryptamine concentration vs plate DMSO controls (fold change (ratio)); higher = more amine produced, active = hit call of the paper (significant change in both replicates, either direction)
Settings: incubation time: 27 h, anaerobic, 37 °C
Structures can show the parent of a compound that is named as a salt.
Catalogue of fold change of Tryptamine concentration values
Value Type: fold change of Tryptamine concentration

Compound	Value Type	Reported Measurement
COc1ncnc(NS(=O)(=O)c2ccc(N)cc2)c1OC [Sulfadoxine] (20 µM)	fold change of Tryptamine concentration	0.997
CC(CN1c2ccccc2Sc2ccccc21)N(C)C (stereo not given) [Promethazine hydrochloride] (20 µM)	fold change of Tryptamine concentration	0.997
OC[C@@H](O)[C@@H](O)[C@H](O)[C@@H](O)CO [Sorbitol] (50 µM)	fold change of Tryptamine concentration	0.988
COc1ccc(CN(CCN(C)C)c2ccccn2)cc1 [Pyrilamine maleate] (20 µM)	fold change of Tryptamine concentration	1.02
CC(=O)O[C@H]1C[C@@H]2CC[C@@H]3[C@H](CC[C@@]4(C)[C@H]3C[C@H]([N+]3(C)CCCCC3)[C@@H]4OC(C)=O)[C@@]2(C)C[C@@H]1N1CCCCC1 [Vecuronium bromide] (20 µM)	fold change of Tryptamine concentration	1.01

----------
Catalogue of growth values
Tested on: Escherichia coli IAI1
Assay: growth (OD595) fold change vs plate DMSO controls (fold change (ratio)); higher = more growth
Settings: incubation time: 27 h, anaerobic, 37 °C
Structures can show the parent of a compound that is named as a salt.

Compound	Study System	growth
CSc1ccc2c(c1)N(CCC1CCCCN1C)c1ccccc1S2 (centres undefined) [Thioridazine hydrochloride] (20 µM)	Escherichia coli IAI1	1.03
C[C@]12CC[C@@H]3c4ccc(O)cc4C[C@@H](CCCCCCCCC[S+]([O-])CCCC(F)(F)C(F)(F)F)[C@H]3[C@@H]1CC[C@@H]2O (some centres undefined) [Fulvestrant] (20 µM)	Escherichia coli IAI1	1.06
CC(Cc1cccc(C(F)(F)F)c1)NCCOC(=O)c1ccccc1 (centres undefined) [Benfluorex] (20 µM)	Escherichia coli IAI1	0.988
CN(C)CCn1nnnc1SCC1=C(C(=O)O)N2C(=O)[C@@H](NC(=O)Cc3csc(N)n3)[C@H]2SC1 [Cefotiam hydrochloride] (20 µM)	Escherichia coli IAI1	0.00521
OC(CCN1CCCCC1)(c1ccccc1)c1ccccc1 [Pridinol methanesulfonate salt] (20 µM)	Escherichia coli IAI1	0.97
C[C@@H](O)[C@H]1C(=O)N2C(C(=O)O)=C(SCCNC=N)C[C@H]12 [Imipenem] (20 µM)	Escherichia coli IAI1	1.08
CCOC1O[C@H]([C@@H](COCc2ccccc2)OCc2ccccc2)[C@H](OCc2ccccc2)[C@H]1O (some centres undefined) [Tribenoside] (20 µM)	Escherichia coli IAI1	0.959
Cc1ccc(/C(=C\CN2CCCC2)c2ccccn2)cc1 [Triprolidine hydrochloride] (20 µM)	Escherichia coli IAI1	1.01
CC1=C(C(=O)O)N2C(=O)[C@@H](NC(=O)[C@H](N)c3ccc(O)cc3)[C@H]2SC1 [Cefadroxil] (20 µM)	Escherichia coli IAI1	1.03

----------
Tested on: Klebsiella aerogenes DSM 30053
Assay: fold change of Cadaverine concentration vs plate DMSO controls (fold change (ratio)); higher = more amine produced, active = hit call of the paper (significant change in both replicates, either direction)
Conditions: incubation time: 27 h, anaerobic, 37 °C
Structures can show the parent of a compound that is named as a salt.
Catalogue of fold change of Cadaverine concentration values
Value Type: fold change of Cadaverine concentration

Molecule	Reported Measurement
CC(CN(C)C)CN1c2ccccc2CCc2ccccc21 (stereo unspecified) [Trimipramine maleate salt] (20 µM)	1
CCN(CC)CCOCCOC(=O)C(CC)(CC)c1ccccc1 [Oxeladin citrate] (20 µM)	0.994
N=C(NCCCCCCNC(=N)NC(=N)Nc1ccc(Cl)cc1)NC(=N)Nc1ccc(Cl)cc1 [Chlorhexidine] (20 µM)	1
CCOC(=O)NNc1nncc2ccccc12 [Todralazine hydrochloride] (20 µM)	1.01
CO[C@@H]1[C@@H](OC(N)=O)[C@@H](O)[C@H](Oc2ccc3c(O)c(NC(=O)c4ccc(O)c(CC=C(C)C)c4)c(=O)oc3c2C)OC1(C)C [Novobiocin sodium salt] (20 µM)	1
CCCCC(C)(O)C/C=C/[C@H]1[C@H](O)CC(=O)[C@@H]1CCCCCCC(=O)OC (mixture of isomers) [Misoprostol] (20 µM)	0.995
CC(=O)OC[C@H]1O[C@@H](n2ncc(=O)[nH]c2=O)[C@H](OC(C)=O)[C@@H]1OC(C)=O [Azaribine] (20 µM)	1.02
COc1c(O[C@@H]2O[C@H](CO)[C@@H](O)[C@H](O)[C@H]2O)cc2c(c1OC)-c1ccc(SC)c(=O)cc1[C@@H](NC(C)=O)CC2 [Thiocolchicoside] (20 µM)	0.991
C#CCN(C)CCCOc1ccc(Cl)cc1Cl [Clorgyline hydrochloride] (20 µM)	0.991
CC(C)(C)NC(=O)[C@H]1CC[C@H]2[C@@H]3CC[C@H]4NC(=O)C=C[C@]4(C)[C@H]3CC[C@]12C [Finasteride] (20 µM)	1.01
Cc1c(N)c(=O)n(-c2ccccc2)n1C [Ampyrone] (20 µM)	1.01
